Assay: Signal strength differences due to reaction pH and buffer composition (hydrogen peroxide, D-cysteine conversion, LDR)
Format: biochemical
Settings: HEPES pH 7.5, 105 minutes
Entries and their measured Signal to Background Ratios at 105 Minutes follow.
Returns: the value as a bare number; no unit string appended.

Below, 3 compounds whose answers are already recorded.
CC1(C)OB(c2ccc(COc3ccc4nc(C#N)sc4c3)c3ccccc23)OC1(C)C	2.3
CC1(C)OB(c2ccc(COc3ccc4nc(C#N)sc4c3)cc2F)OC1(C)C	3.0
CC1(C)OB(/C=C/COc2ccc3nc(C#N)sc3c2)OC1(C)C	5.7

Now, please, on to the next compound.
Query block: // Signal to Background Ratios at 105 Minutes lookup, key: `CC1(C)OB(c2ccc(COc3ccc4nc(C#N)sc4c3)cc2)OC1(C)C`
Result block: 8.2
